Source: patent US20150037339A1

# TESTED TARGET: BMP receptor types I and II (on W-20-17/BRE-luc cells)
# ASSAY SUMMARY: cell-based or functional assay
OBSERVATION TYPE: EC50 [M]; activation of W-20-17/BRE-luc luciferase reporter cells (M)
Answer with a number only, understood to be in M.

The value of EC50 [M]; activation of W-20-17/BRE-luc luciferase reporter cells measured for the binder BMP9 (ligand, human, UniProt Q9UK05 320-429, looked up) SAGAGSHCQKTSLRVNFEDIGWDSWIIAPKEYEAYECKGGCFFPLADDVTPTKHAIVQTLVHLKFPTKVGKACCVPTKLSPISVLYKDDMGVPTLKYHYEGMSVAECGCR turned out to be 2.6e-10

The value of EC50 [M]; activation of W-20-17/BRE-luc luciferase reporter cells measured for the binder BMP2 (ligand, human, UniProt P12643 283-396, looked up) QAKHKQRKRLKSSCKRHPLYVDFSDVGWNDWIVAPPGYHAFYCHGECPFPLADHLNSTNHAIVQTLVNSVNSKIPKACCVPTELSAISMLYLDENEKVVLKNYQDMVVEGCGCR turned out to be 3.4e-11

The value of EC50 [M]; activation of W-20-17/BRE-luc luciferase reporter cells measured for the binder BMP10 (ligand, human, UniProt O95393 317-424, looked up) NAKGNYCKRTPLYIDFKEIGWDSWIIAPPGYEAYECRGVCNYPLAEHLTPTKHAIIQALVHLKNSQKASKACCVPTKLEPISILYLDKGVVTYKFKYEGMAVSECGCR turned out to be 2.5e-09

The value of EC50 [M]; activation of W-20-17/BRE-luc luciferase reporter cells measured for the binder BMP4 (ligand, human, UniProt P12644 293-408, looked up) SPKHHSQRARKKNKNCRRHSLYVDFSDVGWNDWIVAPPGYQAFYCHGDCPFPLADHLNSTNHAIVQTLVNSVNSSIPKACCVPTELSAISMLYLDEYDKVVLKNYQEMVVEGCGCR turned out to be 6.3e-11
